Data provenance is ChEMBL document CHEMBL1201862.

The following molecules have recorded GI50 on HCT-15.

Check out these entries, answers already filled in.
[[record]]
molecule = "ClC(Cl)(Cl)C(N1CCN(c2ccccc2)CC1)N1CCN(c2ccccc2)CC1"
system_tested = "HCT-15"
property = "GI50"
experimental_value = "> 100 µM"

[[record]]
molecule = "CC(C)(Oc1ccc(C2C[C@H]2Cl)cc1)C(=O)O (stereo partly specified)"
system_tested = "HCT-15"
property = "GI50"
experimental_value = "> 100 µM"

[[record]]
molecule = "NC1=NS(=O)(=O)Nc2nc(-c3ccccc3)c(-c3ccccc3)nc21"
system_tested = "HCT-15"
property = "GI50"
experimental_value = "> 100 µM"

[[record]]
molecule = "S=c1sc2c(s1)SCCCCSCCCCSc1sc(=S)sc1SCCCCSCCCCS2"
system_tested = "HCT-15"
property = "GI50"
experimental_value = "> 100 µM"

[[record]]
molecule = "N#Cc1c(C#N)c(-c2ccccc2)n(/N=C\\c2ccccc2)c1N"
system_tested = "HCT-15"
property = "GI50"
experimental_value = "30.6 µM"


// moving on: another record for GI50
# return recorded GI50 for entry "CC(=O)O[C@@H]1[C@@H](O)C2=C3[C@]4(C)[C@@H]1C(C)(C)C(=O)C[C@@H]4[C@]3(O)[C@H](OC(C)=O)[C@@]1(C[C@@H]1C)C2=O"
15.3 µM

* * *

System: LOX IMVI
assay procedure: NCI tumour cell line growth inhibition, 48 h
Active and inactive are the calls of the source. No stated cut-off is given here; in the data, active = GI50 up to about 1.1 µM and inactive = higher.
property: GI50

Check out these entries, answers already filled in.
[[record]]
molecule = "O=C(N/N=C\\c1cccc2ccccc12)Nc1ccccc1"
property = "GI50"
experimental_value = "> 100 µM (inactive)"

[[record]]
molecule = "COC(=O)C(=O)Cc1nc2ccccc2s1"
property = "GI50"
experimental_value = "> 100 µM (inactive)"

[[record]]
molecule = "S=c1sscc1N1CCSc2ssc(=S)c21"
property = "GI50"
experimental_value = "28.4 µM (inactive)"

[[record]]
molecule = "c1cc(CCN2CCCCC2)ccn1"
property = "GI50"
experimental_value = "> 100 µM (inactive)"

[[record]]
molecule = "CC1=C(/C=C/C(C)=C/C=C/C(C)=C/C(=O)O)C(C)(C)CCC1"
property = "GI50"
experimental_value = "31.9 µM (inactive)"


// moving on: another record for GI50
# return recorded GI50 for entry "O=S1(=O)C[C@@H](O)[C@H](O)CS1"
> 100 µM (inactive)

* * *

Tested on: U-251
assay procedure: NCI tumour cell line growth inhibition, 48 h
Calls of active or inactive are those of the source. No stated cut-off is given here; in the data, active = GI50 up to about 1.1 µM and inactive = higher.
Please reply with one of these outcomes: True for active, False for inactive

Would you please look over these solved cases?
[[record]]
compound = "Cc1ccsc1/C=N/Nc1ccccn1"
assigned_class = "False"

[[record]]
compound = "CC(=O)OC1C/C(C)=C/[C@H](O)CC(C)/C=C/[C@@]2(C)CCC(C(C)(C)O)C12 (stereo partly specified)"
assigned_class = "False"

[[record]]
compound = "Cc1nc(-c2ccccc2)c(-c2ccccc2)s1"
assigned_class = "False"

[[record]]
compound = "CC(=O)Oc1c(-c2ccccc2)oc2ccccc12"
assigned_class = "True"

[[record]]
compound = "N=c1sc(N2CCOCC2)nn1CC(=O)c1ccccc1"
assigned_class = "False"


// switching to the query compound
For this compound, state the assay outcome: COC(=O)C(/C(=N\O)C(=O)Nc1cccc(Cl)c1C)c1cnc2ccccc2n1 (stereo unspecified)
False
